Below are IC50 measurements against Acyl-CoA: Cholesterol Acyltransferase (ACAT) (Rattus norvegicus) drawn from the literature.
Give bare numbers, in nM.

chemical_string: CCN(CC)c1nc(C)nc(SC)c1NC(=O)CCCN(c1ccccc1)C1CCCCCC1
IC50 [nM]: 26

chemical_string: CCCCCCCN(CCCCCSc1nc(-c2ccccc2)c(-c2ccccc2)n1C)C(=O)Nc1ccc(F)cc1F
IC50 [nM]: 3600

chemical_string: CCCCCCCCCCCCn1nnc(/C(=N\OC)C(=O)Nc2c(OC)cc(OC)cc2OC)n1
IC50 [nM]: 28

Now take the following molecule into account.
Task: Entry "CCCN(CCCC(=O)Nc1c(S)ncnc1N(CCC)c1ccccc1)c1ccccc1" has what IC50?
Result: 140

###

What follows is literature data on log10 of IC50 for UniProtKB Q7TQM4.
Lab note - IC50 converted to log10 from values in nM.

Solved entries:
molecule: CC(C)c1cc(C(C)C)c(CC(=O)NS(=O)(=O)Oc2c(C(C)C)cc(SC#N)cc2C(C)C)c(C(C)C)c1
log10 of IC50: 4.46

molecule: CCCCCCCN(CCCCCSc1nc(-c2ccccc2)c(-c2ccccc2)[nH]1)C(=O)Nc1c(C(C)C)cccc1C(C)C
log10 of IC50: 2.36

Here are 5 molecules. What values of log10 of IC50 were reported for them?
1. CCCCCCCC/C=C\CCCCCCCC(=O)NC(CN1CCC(OC)CC1)c1ccccc1 (stereo not shown)
2. CCCN(CCCC(=O)Nc1c(S)nc(C)nc1N(CC)CC)c1ccc(OC)cc1
3. CCCCCCCN(CCCCCSc1nc(-c2ccccc2)c(-c2ccccc2)[nH]1)C(=O)NC(C)C
4. CCCCCCCN(CCCCCSc1nc(-c2ccccc2)c(-c2ccccc2)[nH]1)C(=O)OC1CCCCC1
5. CCCCCCCN(Cc1ccccc1)c1nc(C)nc(S)c1NC(=O)CCCN(CCC)c1ccccc1

Result:
[2.18, 2.23, 1.30, 1.70, 1.74]

Task: Please look up its log10 of IC50: "CCCN(CCCCC(=O)Nc1c(S)nc(C)nc1N(CCC)CCC)c1ccccc1"
Result: 1.54

###

// molecules with reported IC50 on Acyl-CoA: Cholesterol Acyltransferase (ACAT) (Rattus norvegicus, UniProt Q7TQM4), multi-publication
Sequence (Q7TQM4 whole entry): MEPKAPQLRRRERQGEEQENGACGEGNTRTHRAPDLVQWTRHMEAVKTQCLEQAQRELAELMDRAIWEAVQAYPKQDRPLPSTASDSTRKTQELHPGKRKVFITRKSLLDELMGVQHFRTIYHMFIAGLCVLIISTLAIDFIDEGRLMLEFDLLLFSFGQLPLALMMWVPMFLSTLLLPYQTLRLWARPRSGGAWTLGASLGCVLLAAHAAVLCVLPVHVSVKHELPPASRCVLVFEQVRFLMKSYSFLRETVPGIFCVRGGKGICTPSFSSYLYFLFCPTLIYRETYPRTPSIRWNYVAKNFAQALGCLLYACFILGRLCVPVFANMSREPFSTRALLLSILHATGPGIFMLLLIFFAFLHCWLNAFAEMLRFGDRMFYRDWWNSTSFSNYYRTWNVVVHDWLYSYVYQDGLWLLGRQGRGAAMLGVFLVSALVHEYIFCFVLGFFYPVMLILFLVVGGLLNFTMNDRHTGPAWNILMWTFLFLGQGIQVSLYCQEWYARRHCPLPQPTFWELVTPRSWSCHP
Give bare numbers, in nM.

Please review the entries below; each comes with its answer.
chemical_string: CCCCCCCC/C=C\CCCCCCCC(=O)N[C@H]1CCCC[C@@H]1NC(=O)CCNC(=O)[C@H](O)C(C)(C)CO
target_or_system: Acyl-CoA: Cholesterol Acyltransferase (ACAT) (Rattus norvegicus, UniProt Q7TQM4)
assay_value: 155
--
chemical_string: CC(C)c1cc(C(C)C)c(CC(=O)NS(=O)(=O)Oc2c(C(C)C)cc(N(CCO)CCO)cc2C(C)C)c(C(C)C)c1
target_or_system: Acyl-CoA: Cholesterol Acyltransferase (ACAT) (Rattus norvegicus, UniProt Q7TQM4)
assay_value: 43800

As a next step, examine the molecule that follows.
Task: Request: IC50, test system Acyl-CoA: Cholesterol Acyltransferase (ACAT) (Rattus norvegicus, UniProt Q7TQM4), entry "CCCCCCCN(CCCCCSc1nc(-c2ccccc2)c(-c2ccccc2)[nH]1)C(=S)Nc1c(F)cc(F)cc1F"
Result: 30

###

Study the reported IC50 values for Acyl-CoA: Cholesterol Acyltransferase (ACAT) (Rattus norvegicus, UniProt Q7TQM4) given below; they originate from different publications.
Numbers only, in nM.

For the 3 molecules below, give their IC50 values.
1. CCCCCCCCCCCCCCC(C)(C)C(=O)NC(CN1CCN(C)CC1)c1ccccc1 (centres unmarked)
2. CCOC(=O)CCCCCc1cc(C(C)C)c(OS(=O)(=O)NC(=O)Cc2c(C(C)C)cc(C(C)C)cc2C(C)C)c(C(C)C)c1
3. CCCCCCCCCCN(CCCC(=O)Nc1c(SC)nc(C)nc1N(CC)CC)c1ccccc1

Result:
1100
19000
32

###

Kindly find below IC50 information for Acyl-CoA: Cholesterol Acyltransferase (ACAT) (Rattus norvegicus) taken from the literature.

Sample answers from the record:
molecule: Cc1cc2c(-c3ccccc3C)c(NC(=O)Nc3ccc(F)cc3F)c(=O)n(C)c2cc1Cl
IC50: 9.3 nM
//
molecule: CN1CCN(CC(NC(=O)CCCCCCCCCCOc2ccccc2)c2ccccc2)CC1 (centres unmarked)
IC50: 4000 nM
//
molecule: CCCN(CCCCC(=O)Nc1c(S)nc(C)nc1N(CCC)c1ccccc1)c1ccccc1
IC50: 79 nM
//
molecule: CCCCCCCN(CCNC(=O)CSc1nc(-c2ccc(OC)cc2)c(-c2ccc(OC)cc2)[nH]1)C(=O)Nc1ccc(F)cc1F
IC50: 3750 nM
//
molecule: CCCCCCCC/C=C\CCCCCCCC(=O)NC(CN1CCN(C)CC1)c1ccccc1 (centres unmarked)
IC50: 300 nM

I would be grateful if you could provide IC50 for each of the following entries.
1. COc1ccc(CSC(C(=O)Nc2c(SC)cc(C)nc2SC)c2ccc(C(F)(F)F)cc2)cc1 (centres unmarked)
2. CC(C)c1cc(C(C)C)c(CC(=O)NS(=O)(=O)Oc2c(C(C)C)cc(NS(C)(=O)=O)cc2C(C)C)c(C(C)C)c1
3. CCCCCCCCCCCCCCCC(=O)NC(CN1CCN(C)CC1)c1ccccc1 (centres unmarked)

Result:
1: < 1000 nM; 2: 45000 nM; 3: 1200 nM

###

Literature survey of pIC50 (system: Acyl-CoA: Cholesterol Acyltransferase (ACAT) (Rattus norvegicus, UniProt Q7TQM4)).
Numbers only, as −log10 of the molar value.

compound: CC(C)c1cc(C(C)C)c(CC(=O)NS(=O)(=O)Oc2c(C(C)C)cc(NC(=S)Nc3ccccc3)cc2C(C)C)c(C(C)C)c1
measured_metric: pIC50
assay_value: 4.43

compound: CCCCCCCN(Cc1ccccc1)c1nc(C)nc(SC)c1NC(=O)CCCN(CCC)c1ccccc1
measured_metric: pIC50
assay_value: 7.19

// each listed compound needs a value for pIC50
1. CCCCCCCCCCCCn1nnc(C(C(=O)Nc2c(C(C)C)cccc2C(C)C)N(CC)CC)n1 (racemic)
2. CCCCCCCN(CCCCCSc1nc(-c2ccccc2)c(-c2ccccc2)[nH]1)C(=O)Cc1ccc(F)cc1F

Result:
1: 7.49; 2: 7.60

###

// cross-source set; read-out = IC50; system = Acyl-CoA: Cholesterol Acyltransferase (ACAT) (Rattus norvegicus, UniProt Q7TQM4)

Field: example entries. Status: answers known.
molecule: CCCCCCC1=C(CCCCCC)CC(C(=O)Nc2c(C(C)C)cccc2C(C)C)SC1 (stereo not shown)
measured_metric: IC50
assay_value: < 2000 nM
--
molecule: CSc1cc(C)nc(SC)c1NC(=O)C(SCc1ccc(Cl)cc1)c1cccc(Oc2ccc(Br)cc2)c1 (stereo not shown)
measured_metric: IC50
assay_value: < 1000 nM
--
molecule: CSc1cc(C)nc(SC)c1NC(=O)C(SCc1ccc(Cl)cc1)c1ccc(Cl)cc1 (stereo not shown)
measured_metric: IC50
assay_value: < 1000 nM
--
molecule: CC(C)c1cccc(C(C)C)c1NS(=O)(=O)CC(=O)NC(c1ccccc1)c1ccccc1
measured_metric: IC50
assay_value: > 1000 nM
--
molecule: CSc1cc(C)nc(SC)c1NC(=O)C(SCc1ccc(Cl)cc1)c1ccc(C(C)C)cc1 (stereo not shown)
measured_metric: IC50
assay_value: < 1000 nM
--
molecule: CSc1cc(C)nc(SC)c1NC(=O)C(SCc1ccccc1)c1ccccc1 (single isomer, unassigned)
measured_metric: IC50
assay_value: < 1000 nM
--
molecule: CCCCCCC1=C(CCCCCC)CC(C(=O)Nc2c(Cl)cccc2Cl)SC1 (stereo not shown)
measured_metric: IC50
assay_value: 3000 to 10000 nM
--
molecule: CC(C)c1cc(C(C)C)c(CC(=O)NS(=O)(=O)Oc2c(C(C)C)cc(CCCCCC(=O)O)cc2C(C)C)c(C(C)C)c1
measured_metric: IC50
assay_value: > 50000 nM

I'm hoping you can list IC50 for every molecule here, please.
1. CCSC(C(=O)Nc1c(SC)cc(C)nc1SC)c1ccccc1 (single isomer, unassigned)
2. CSc1cc(C)nc(SC)c1NC(=O)C(SCc1ccc(F)cc1)c1ccc(Cl)cc1 (stereo not shown)
3. CCCCCCSC(C(=O)Nc1c(C(C)C)cccc1C(C)C)c1ccccc1 (single isomer, unassigned)
4. CSc1cc(C)nc(SC)c1NC(=O)C(Sc1ccc(F)cc1)c1ccc(C(F)(F)F)cc1 (stereo not shown)
5. CC(C)c1cccc(C(C)C)c1NS(=O)(=O)CC(=O)O

Result:
1. < 1000 nM
2. < 1000 nM
3. < 1000 nM
4. < 1000 nM
5. > 1000 nM

###

pIC50: −log10 of the molar value.
Record set: pIC50 | Acyl-CoA: Cholesterol Acyltransferase (ACAT) (Rattus norvegicus) | literature, multiple sources.

Take a look at these entries with their results.
molecule: CC(C)c1cc(C(C)C)c(CC(=O)NS(=O)(=O)Oc2c(C(C)C)cc(NC(=O)C(C)(C)N)cc2C(C)C)c(C(C)C)c1
pIC50: < 4.30

molecule: COc1ccc(CSC(C(=O)Nc2c(SC)cc(C)nc2SC)c2ccc(-c3ccccc3)cc2)cc1 (centres unmarked)
pIC50: > 6.00

Provide each entry's pIC50 from the list below.
1. COc1ccc(C(SCc2ccccc2)C(=O)Nc2c(SC)cc(C)nc2SC)cc1OC (centres unmarked)
2. COc1ccc(SC(C(=O)Nc2c(SC)cc(C)nc2SC)c2ccc(OC)cc2)cc1 (centres unmarked)
3. CCCCCC1C=CC(CCCCC)C(C(=O)Nc2ccc(F)cc2F)S1 (centres unmarked)

Result:
["> 6.00", "> 6.00", "5.00 to 5.52"]

Below is a list of molecules. For each, state its recorded pIC50.
1. CSc1cc(C)nc(SC)c1NC(=O)C(SCc1ccccc1)c1cccc(Oc2ccccc2)c1 (centres unmarked)
2. CC(C)(C)C1C=CCC(C(=O)Nc2ccc(F)cc2F)S1 (centres unmarked)
3. COc1ccc(CSC(C(=O)Nc2c(SC)cc(C)nc2SC)c2ccc(Cl)c(Cl)c2)cc1 (centres unmarked)

Result:
1. > 6.00
2. 4.30 to 4.96
3. > 6.00
